FYI, the data here is from ChEMBL document CHEMBL4417631.

- method_description: Half life in simulated gastric fluid at 20 uM by LC-MS/MS analysis
- Format: ADME
property_measured: half-life at 20 µM

{"structure_string": "COc1ccc(C[C@H](NC(=O)[C@H]2NC(=O)[C@H](CCC(N)=O)NC(=O)[C@H](Cc3c[nH]c4ccccc34)NC(=O)[C@H]([C@@H](C)O)NC(=O)[C@H](CCC(N)=O)NC(=O)[C@@H](NC(C)=O)CCSC2(C)C)C(=O)N[C@@H](Cc2ccc3ccccc3c2)C(=O)N[C@@](C)(CCCCN)C(=O)N[C@@H](CCC(=O)O)C(=O)N[C@@H](CC(N)=O)C(=O)NCC(N)=O)cc1", "half-life at 20 µM": "2 to 3 h"}
{"structure_string": "CC[C@H](NC(=O)[C@H](CC(N)=O)NC(=O)[C@H](CCCCNC(C)=O)NC(=O)C(C)(C)NC(=O)[C@H](Cc1ccc2ccccc2c1)NC(=O)[C@H](Cc1ccc(OC)cc1)NC(=O)[C@@H](NC(=O)[C@H](CCC(N)=O)NC(=O)[C@H](Cc1c[nH]c2ccccc12)NC(=O)[C@@H](NC(=O)[C@H](CC(N)=O)NC(=O)[C@@H](NC(C)=O)C(C)(C)S)[C@@H](C)O)C(C)(C)S)C(N)=O", "half-life at 20 µM": "> 6 h"}
{"structure_string": "CC(=O)NCCCC[C@H](NC(=O)[C@](C)(CCCCNC(C)=O)NC(=O)[C@H](Cc1ccc2ccccc2c1)NC(=O)[C@H](Cc1ccc(OCCNC(C)=O)cc1)NC(=O)[C@@H](NC(=O)[C@H](CCC(N)=O)NC(=O)[C@H](Cc1c[nH]c2ccccc12)NC(=O)[C@@H](NC(=O)[C@H](CCC(N)=O)NC(=O)[C@@H](NC(C)=O)C(C)(C)S)[C@@H](C)O)C(C)(C)S)C(=O)N[C@@H](CC(N)=O)C(=O)NCC(N)=O", "half-life at 20 µM": "> 6 h"}
{"structure_string": "CC(=O)NCCCC[C@H](NC(=O)[C@H](CCC(C)C)NC(=O)[C@H](Cc1ccc2ccccc2c1)NC(=O)[C@H](Cc1ccc(OCCN)cc1)NC(=O)[C@@H](NC(=O)[C@H](CCC(N)=O)NC(=O)[C@H](Cc1c[nH]c2ccccc12)NC(=O)[C@@H](NC(=O)[C@H](CC(N)=O)NC(=O)[C@@H](NC(C)=O)C(C)(C)S)[C@@H](C)O)C(C)(C)S)C(=O)N[C@@H](CC(N)=O)C(=O)NCCC(N)=O", "half-life at 20 µM": "< 1 h"}

Please turn your attention to the following entry.
Ask: // half-life at 20 µM lookup, key: CC(=O)NCCCC[C@](C)(NC(=O)[C@H](Cc1ccc2ccccc2c1)NC(=O)[C@H](Cc1ccc(OCCNC(C)=O)cc1)NC(=O)[C@@H](NC(=O)[C@H](CCC(N)=O)NC(=O)[C@H](Cc1c[nH]c2ccccc12)NC(=O)[C@@H](NC(=O)[C@H](CNC(C)=O)NC(=O)[C@@H](NC(C)=O)C(C)(C)S)[C@@H](C)O)C(C)(C)S)C(=O)N[C@@H](CCC(=O)O)C(=O)N[C@@H](CC(N)=O)C(=O)NCC(N)=O
Reply: > 6 h

----------
- system: Interleukin-23 receptor (Homo sapiens, UniProt Q5VWK5)
- Sequence (Q5VWK5 whole entry): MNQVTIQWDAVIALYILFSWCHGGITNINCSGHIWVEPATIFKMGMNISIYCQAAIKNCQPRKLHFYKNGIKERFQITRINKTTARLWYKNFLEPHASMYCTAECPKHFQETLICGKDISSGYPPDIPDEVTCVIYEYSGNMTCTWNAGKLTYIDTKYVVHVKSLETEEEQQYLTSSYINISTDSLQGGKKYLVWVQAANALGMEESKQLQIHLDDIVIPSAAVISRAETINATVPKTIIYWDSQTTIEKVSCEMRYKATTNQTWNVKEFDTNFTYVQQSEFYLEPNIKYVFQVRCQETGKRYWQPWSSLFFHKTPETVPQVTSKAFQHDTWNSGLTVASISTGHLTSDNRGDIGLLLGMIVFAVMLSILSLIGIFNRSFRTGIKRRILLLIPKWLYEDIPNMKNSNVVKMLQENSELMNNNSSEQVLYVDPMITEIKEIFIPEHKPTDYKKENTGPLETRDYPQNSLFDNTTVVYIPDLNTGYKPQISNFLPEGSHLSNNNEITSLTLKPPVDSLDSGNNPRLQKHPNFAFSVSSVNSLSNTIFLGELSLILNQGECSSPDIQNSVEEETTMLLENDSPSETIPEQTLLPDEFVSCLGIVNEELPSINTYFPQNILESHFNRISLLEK
- method_description: Inhibition of interleukin-23 binding to human interleukin-23 receptor incubated for 2 hrs by competitive binding ELISA
property_measured: IC50

{"structure_string": "CC(=O)NCCCC[C@](C)(NC(=O)[C@H](Cc1ccc2ccccc2c1)NC(=O)[C@H](Cc1ccc(OCCNC(C)=O)cc1)NC(=O)[C@@H](NC(=O)[C@H](CCC(N)=O)NC(=O)[C@H](Cc1c[nH]c2ccccc12)NC(=O)[C@@H](NC(=O)[C@](C)(CCCNC(C)=O)NC(=O)[C@@H](NC(C)=O)C(C)(C)S)[C@@H](C)O)C(C)(C)S)C(=O)N[C@@H](CCC(=O)O)C(=O)N[C@@H](CC(N)=O)C(=O)NCC(N)=O", "system": "Interleukin-23 receptor (Homo sapiens, UniProt Q5VWK5)", "IC50": "0.1 to 1 µM"}

Turning to the following compound.
Ask: So what does the record say about IC50 for CC(=O)N[C@@H](CS)C(=O)N[C@@H](CCC(N)=O)C(=O)N[C@H](C(=O)N[C@@H](Cc1c[nH]c2ccccc12)C(=O)N[C@@H](CCC(N)=O)C(=O)N[C@@H](CS)C(=O)N[C@@H](Cc1ccc(O)cc1)C(=O)N[C@@](C)(Cc1ccccc1)C(=O)N[C@@H](CCC(C)C)C(=O)N[C@@H](CCC(=O)O)C(=O)N[C@@H](CC(N)=O)C(=O)NCC(N)=O)[C@@H](C)O ?
Reply: 30 µM
